Assay: Unbound volume of distribution in Wistar Han rat at 0.05 mg/kg, iv administered using cassette dosing by LC-MS/MS analysis
Format: ADME, organism-based
Conditions: in vivo
The entries below come with measured Vdu values attached.
Enter the number, and then the unit.

Example entries begin here.
Could you share which Vdu value was measured for CCCNC(=O)C1(c2ccc(NC(=O)c3cccc(Cl)c3)cc2)CCC1 ?
180 L/kg

Could you share which Vdu value was measured for O=C(Nc1ccc(C2(C(=O)Nc3ccc(F)cc3)COC2)cc1)c1cccc(Cl)c1 ?
420 L/kg

Could you share which Vdu value was measured for O=C(Nc1ccc([C@]2(C(=O)Nc3ccc(F)cc3)C[C@@H](O)C2)cc1)c1cccc(Cl)c1 ?
99 L/kg

Turning to the following compound.
Could you share which Vdu value was measured for O=C(Nc1ccc(C2(C(=O)Nc3ccc(F)cc3)CCC2)cc1)c1cccc(Cl)c1 ?
1100 L/kg

----------
Test: MRT in Wistar Han rat at 0.5 mg/kg, iv or 1 mg/kg, po by LC-MS/MS analysis
Assay type: ADME, organism-based
Conditions: in vivo
MEASURED_ATTRIBUTE: MRT (h)
Write it as a number; the unit h goes unstated.

Could you share which MRT value was measured for O=C(Nc1ccc(C2(C(=O)Nc3ccc(F)cc3)CCC2)cn1)c1cccc(Cl)c1 ?
5

----------
Assay: Unbound intrinsic clearance in rat hepatocytes incubated for 120 mins by LC-MS/MS analysis
Assay type: ADME, cell-based, Hepatocyte
Conditions: 2 h
The threshold is inclusive: CL free of exactly 2000 mL/min/kg counts as Fulfilled; values below receive Not fulfilled.

Does O=C(Nc1ccc(C2(C(=O)NC3CCOCC3)CCC2)cc1)c1cccc(Cl)c1 have a reported CL free of at least 2000 mL/min/kg?
Not fulfilled

----------
The entries below come with measured CL free values attached.
Experiment: Unbound intrinsic clearance in human hepatocytes incubated for 120 mins by LC-MS/MS analysis
Type: ADME, cell-based, Hepatocyte
Conditions: 2 h
Write it as a number; the unit mL/min/kg goes unstated.

Could you share which CL free value was measured for O=C(Nc1ccc(C2(C(=O)Nc3ccc(F)cc3)CCC2)cn1)c1cccc(Cl)c1 ?
1300

Could you share which CL free value was measured for O=C(Nc1ccc(C2(C(=O)Nc3ccc(F)cc3)COC2)cc1)c1cccc(Cl)c1 ?
420

Could you share which CL free value was measured for CCCNC(=O)C1(c2ccc(NC(=O)c3ccc(F)c(C)c3)cc2)CCC1 ?
560

Could you share which CL free value was measured for CCCNC(=O)C1(c2ccc(NC(=O)c3cccc(Cl)c3)cc2)CCC1 ?
870

Next:
Could you share which CL free value was measured for O=C(Nc1ccc(C2(C(=O)Nc3ccc(F)cc3)CCC2)cc1)c1cccc(Cl)c1 ?
2000

Could you share which CL free value was measured for O=C(Nc1ccc(C2(C(=O)NC3CCOCC3)CCC2)cc1)c1cccc(Cl)c1 ?
390

Could you share which CL free value was measured for O=C(Nc1ccc([C@]2(C(=O)Nc3ccc(F)cc3)C[C@@H](O)C2)cc1)c1cccc(Cl)c1 ?
350

Could you share which CL free value was measured for O=C(Nc1ccc(C2(C(=O)Nc3ccc(Cl)nc3)CCC2)cc1)c1cccc(Cl)c1 ?
1900

----------
Experiment: Clearance in Wistar Han rat at 0.05 mg/kg, iv administered using cassette dosing by LC-MS/MS analysis
Format: ADME, organism-based
Conditions: in vivo
MEASURED_ATTRIBUTE: clearance

Could you share which clearance value was measured for CCCNC(=O)C1(c2ccc(NC(=O)c3cccc(Cl)c3)cc2)CCC1 ?
110 mL/min/kg

----------
Experiment: Unbound intrinsic clearance in rat hepatocytes incubated for 120 mins by LC-MS/MS analysis
Format: ADME, cell-based, Hepatocyte
Conditions: 2 h
The threshold is inclusive: CL free of exactly 800 mL/min/kg counts as yes (1); values below receive no (0).

Examples from the recorded data:
Does O=C(Nc1ccc(C2(C(=O)Nc3ccc(F)cc3)COC2)cc1)c1cccc(Cl)c1 have a reported CL free of at least 800 mL/min/kg?
no (0)

Does O=C(Nc1ccc(C2(C(=O)Nc3ccc(F)cc3)CCC2)cc1)c1cccc(Cl)c1 have a reported CL free of at least 800 mL/min/kg?
yes (1)

Does O=C(Nc1ccc(C2(C(=O)Nc3ccc(Cl)nc3)CCC2)cc1)c1cccc(Cl)c1 have a reported CL free of at least 800 mL/min/kg?
no (0)

Does CCCNC(=O)C1(c2ccc(NC(=O)c3cccc(Cl)c3)cc2)CCC1 have a reported CL free of at least 800 mL/min/kg?
yes (1)

Does O=C(Nc1ccc(C2(C(=O)Nc3ccc(F)cc3)COC2)nc1)c1cccc(Cl)c1 have a reported CL free of at least 800 mL/min/kg?
no (0)

Next:
Does CCCNC(=O)C1(c2ccc(NC(=O)c3ccc(F)c(C)c3)cc2)CCC1 have a reported CL free of at least 800 mL/min/kg?
yes (1)

Does O=C(Nc1ccc(C2(C(=O)Nc3ccc(F)cc3)CCC2)cn1)c1cccc(Cl)c1 have a reported CL free of at least 800 mL/min/kg?
yes (1)

Does O=C(Nc1ccc([C@]2(C(=O)Nc3ccc(F)cc3)C[C@@H](O)C2)cc1)c1cccc(Cl)c1 have a reported CL free of at least 800 mL/min/kg?
no (0)
